// reported z-score per item
experiment: E. coli acrAB mutant growth effects, primary screen, E. coli filamentation inducers, strain DRC39, OD650, 48 h (AID 1179);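 note: screen aims at cell division blockers that make cells filament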
measurement.conditions: E. coli DRC39 delta-acrAB growth, higher = more signal, called active from +8 up or from −8 down
Answer using only a numeral; do not append any unit.

The following compounds have reported results that may help.
O=C1c2ccccc2[C@](Cc2ccccc2I)(C(=O)O)[C@H](c2ccc(CO)cc2)N1Cc1ccccc1 ... 1.39
CC=CC(O)C1C=CC2C(=O)N(C)C(=O)C2N1NC(=O)OC(C)(C)C (centres undefined) ... -0.504
COc1cccc(OC)c1C(=O)O[C@H]1[C@@H]2OC(=O)[C@H](Cc3cccc(Br)c3)C/C=C/C[C@@H](Cc3cccc(Br)c3)C(=O)O[C@H]2[C@@H](OC)O[C@@H]1CO ... 0.165

We now examine a further compound.
IN: State its z-score for this compound: `COCCOC(=O)N1C(=O)[C@@]2(c3cc(C#CCC(C(=O)OC)C(=O)OC)ccc31)[C@H](c1ccc(OCCO)cc1)N1[C@H](c3ccccc3)[C@H](c3ccccc3)OC(=O)[C@H]1[C@@H]2C(=O)N1CCCCCCC1`
OUT: 0.0786

====

experiment: binders of probe aFGF10 on microarray, primary screen, stem cell growth factor project, biochemical, small-molecule microarray, fluorescence 635/667 (AID 1071);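 note: score merges 667 nm spot intensity and signal to noise from triplicate slides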
measurement.conditions: higher = more signal
experimental.endpoint: composite z-score
Answer using only a numeral; do not append any unit.

The following compounds have reported results that may help.
COC(=O)c1ccc([C@H](NC(=O)c2ccccc2)[C@]2(C)C[C@H]2C2CCCCC2)cc1 ... 0.172
CCOC(=O)C1=CC[C@@H](c2ccccc2Cl)N(S(=O)(=O)c2ccc(C)cc2)[C@H]1c1cccc(OC)c1 ... 0.317
CC(C)C(=C=CC[C@@H](O)c1ccc(OCCO)cc1)CCO ... 0.127
CCCC[C@@H]1C[C@H]1[C@@H](NC(=O)c1ccc(C(F)(F)F)cc1)c1ccc(C(=O)OC)cc1 ... 0.769
Cc1ccc(F)cc1S(=O)(=O)N[C@@H]1CCN(Cc2ccc3[nH]ccc3c2)C1 ... 0.652

IN: State its composite z-score for this compound: `C=CC[C@@]1(C(=O)O)N=C(c2ccc(OCCCO)cc2)O[C@@H]1c1ccccc1CN=[N+]=[N-]`
OUT: 0.744

IN: State its composite z-score for this compound: `COC(=O)[C@@]1(Cc2ccc(F)cc2)[C@H]2c3cc(C(=O)N(C)C)n(CCO)c3C[C@H]2CN1C(=O)c1ccccc1`
OUT: 0.429

IN: State its composite z-score for this compound: `CC(C)C[C@@H]1NC(=O)[C@@H]2C[C@H](C(=O)NCCCC[N+](C)(C)C)[C@H](c3ccc(O)cc3)N2C1=O`
OUT: 0.639

====

assay.target: Left-right determination factor 2 (Homo sapiens) (UniProt O00292)
Sequence (O00292 whole entry, looked up): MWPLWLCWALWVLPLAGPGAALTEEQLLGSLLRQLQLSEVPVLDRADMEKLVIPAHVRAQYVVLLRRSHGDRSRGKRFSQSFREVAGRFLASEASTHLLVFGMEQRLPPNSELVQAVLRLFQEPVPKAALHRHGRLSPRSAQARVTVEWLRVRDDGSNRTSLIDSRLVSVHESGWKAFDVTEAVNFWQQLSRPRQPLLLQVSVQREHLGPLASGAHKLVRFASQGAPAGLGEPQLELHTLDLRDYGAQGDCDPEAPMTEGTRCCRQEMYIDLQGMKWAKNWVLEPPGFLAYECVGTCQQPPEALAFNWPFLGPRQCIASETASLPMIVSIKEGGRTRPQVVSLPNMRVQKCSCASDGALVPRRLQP
experiment: LEFTY2 binders on small-molecule microarrays, primary screen, biochemical, small-molecule microarray, 635 nm fluorescence scan (AID 1110)
measurement.conditions: LEFTY2 binding, higher = more signal
Each entry gets not fulfilled if its composite z-score stays under 0.09, and fulfilled if its composite z-score is 0.09 or above.

Check out these entries, answers already filled in.
COCCOC(=O)N1C(=O)[C@@]2(c3cc(C#CC4(O)CCCCCC4)ccc31)[C@H](c1ccc(OCCO)cc1)N1[C@H](c3ccccc3)[C@H](c3ccccc3)OC(=O)[C@H]1[C@@H]2C(N)=O ... fulfilled
COCCn1c(C(=O)N2CCCC2)cc2c1C[C@H]1CN(C(=O)c3ccccc3)[C@@](Cc3ccccc3)(C(=O)OC)[C@@H]21 ... fulfilled
COCC1=C([C@H](O)CCc2ccccc2)[C@H](CO)n2c(=O)n(-c3ccccc3)c(=O)n2C1 ... fulfilled
O=C1C2C=CC(C(O)C(c3ccccc3)c3ccccc3)N(Nc3ccccc3)C2C(=O)N1c1ccccc1 (stereo not given) ... fulfilled
C=CCN1C(=O)[C@]2(O[C@H](CCn3cc([C@H](O)c4ccccc4)nn3)[C@@H]([Si](C)(C)c3ccc(OC)cc3)[C@@H]2C)c2cc(N3C(=O)c4cccc5cccc3c45)ccc21 ... not fulfilled

IN: Form field: composite z-score at least 0.09? Entry: `C=C(CCCC)C(=O)CC[C@H](OC(C)=O)c1ccccc1OCCO`
OUT: fulfilled

IN: Form field: composite z-score at least 0.09? Entry: CCCCCN1CC=CC23O[C@@H]4C=CCOC(=O)[C@@H]4[C@H]2C(=O)N(CCCCCO)[C@@H]3C1=O (stereo not given in full)
OUT: not fulfilled

IN: Form field: composite z-score at least 0.09? Entry: `CCCC=C(CCC)[C@@H](NS(=O)(=O)c1ccc(Cl)cc1)c1ccccc1`
OUT: not fulfilled

IN: Form field: composite z-score at least 0.09? Entry: `CN(C)C(=O)[C@]1(Cc2ccccc2)N=C(c2ccc(OCCCO)cc2)O[C@@H]1c1ccccc1`
OUT: not fulfilled

IN: Form field: composite z-score at least 0.09? Entry: `[N-]=[N+]=NCc1ccccc1C[C@]1(C(=O)N2CCOCC2)N=C(c2ccc(OCCCO)cc2)O[C@H]1c1ccccc1CN=[N+]=[N-]`
OUT: not fulfilled
